tested on: huNav1.7α + β1 (human)
experimental details: cell-based or functional assay
// values below are reported Qpatch IC50 [M], HEK cells
Note: state the figure and append the unit.

Take a look at these entries with their results.
[
  {
    "binder": "66ASP (Fc fusion, also called F010300659-5GS-Fc; not shown: 5GS linker; Fc moiety) EVQLVESGGGLVQPGGSLRLSCAASGPVFNINSMAWYRRAPGKQRELVAYSTPGWDWNYADSVKGRFTISRDNAKRVYLQMNSLTPEDTAVYYCRWLLQPSIYDISRTYWGQGTLVTVSS",
    "data value": "9.2e-08 M"
  },
  {
    "binder": "F010300659 (VHH, also called F0103275B05(S27P, I28V, S50Y, N53P, G55W, S56D, T57W, N93R, A94W)-FLAG3 + HIS6) VHH: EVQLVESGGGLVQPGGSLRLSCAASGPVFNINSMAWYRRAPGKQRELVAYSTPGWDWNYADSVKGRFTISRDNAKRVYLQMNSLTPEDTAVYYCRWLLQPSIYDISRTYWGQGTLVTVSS",
    "data value": "8.5e-08 M"
  },
  {
    "binder": "65ASP (Fc fusion, also called F0103275B05-5GS-Fc; not shown: 5GS linker; Fc moiety) EVQLVESGGGLVQPGGSLRLSCAASGSIFNINSMAWYRRAPGKQRELVASSTNGGSTNYADSVKGRFTISRDNAKRVYLQMNSLTPEDTAVYYCNALLQPSIYDISRTYWGQGTLVTVSS",
    "data value": "1.2e-07 M"
  },
  {
    "binder": "69AVB (Fc fusion, also called F010301656-5GS-Fc; F10301656* (ISVD with human IgG1 Fc); not shown: 5GS linker; human IgG1 Fc) EVQLVESGGGLAQPGGSLRLSCAASGPVFNINRMAWYRRAPGKQRELVAYVTPTGDISYTDSVKGRFTISRDGSKRWSLQMNSLTPEDTAVYYCRALLQPDSYSNTRTYWGQGTLVTVSS",
    "data value": "1.3e-08 M"
  }
]

Attention now turns to another entry.
Exercise: Would you mind telling me what Qpatch IC50 [M], HEK cells value was observed for F010301656 (VHH, also called F0103387G04(K33R, S50Y, S56D, N93R)-FLAG3-HIS6) VHH: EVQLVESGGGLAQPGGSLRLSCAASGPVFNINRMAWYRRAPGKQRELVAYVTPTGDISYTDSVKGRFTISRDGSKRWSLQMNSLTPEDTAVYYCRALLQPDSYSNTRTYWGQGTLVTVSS ?
Key: 1.8e-08 M

Origin of the recorded values: patent US20240002497A1
